System: HCT-116
Test: cells
Design: species or system JFCR39 human cancer cell lines; JFCR39 panel growth inhibition, sulforhodamine B total protein after 48 h
Details: Homo sapiens, HCT-116, 48 h
Procedure: Supplementary Note 24. Antiproliferative effects across the panel of JFCR39 cancer cell lines A panel of 39 human cancer cell lines, termed JFCR39, were previously described13-16. […] Drug efficacy was assessed as changes in total cellular protein after 48 hours of drug treatment using a sulforhodamine B assay. Assays were done in duplicate and the GI50 was calculated as described previously13,16. […]
Quantity Kind: log10 GI50 (log10 of the value in µM)

# Compound, log10 GI50
records = [
    ("C=C1CCC2C(C)(CCC=C(C)C)C(O)CCC2(C)C1Cc1c(OC)oc(CO)c(C(=O)OC)c1=O (centres unmarked)", 1.26),
    ("C=C1CCC2C(C)(CC(=O)C=C(C)C)C(O)CCC2(C)C1Cc1c(O)c(C)c(C)oc1=O (centres unmarked)", 1.57),
    ("C=C1CCC2C(C)(CCC=C(C)C)C(O)CCC2(C)C1Cc1c(OC)oc(C)c(C)c1=O (centres unmarked)", -0.13),
    ("C=C1CC[C@@H]2[C@](C)(CC[C@H]3O[C@H](C=C(C)C)C[C@@]23C)[C@@H]1Cc1c(OC)oc(CO)c(C)c1=O", 1.02),
    ("C=C1CCC2C(C)(CCC=C(C)C)C(O)CCC2(C)C1Cc1c(OC)oc(CO)c(C)c1=O (centres unmarked)", 0.42),
]

----------
Below: a set of entries, each annotated with reported Th-T fluorescence, mean of three wells.
Target: Aβ42 (Homo sapiens, UniProt P05067)
Sequence (P05067 672-713): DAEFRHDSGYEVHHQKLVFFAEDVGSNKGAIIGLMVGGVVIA
Assay: Th-T (thioflavin-T) assay of Aβ42 aggregation
Type: biochemical
Conditions: compound at 20; reading M41 of time course

# Compound, Th-T fluorescence, mean of three wells
rows = [
    ("C=C1CC[C@@H]2[C@](C)(CC[C@H]3O[C@H](C=C(C)C)C[C@@]23C)[C@@H]1Cc1c(OC)oc(CO)c(C(=O)OC)c1=O", 0.2134),
    ("C=C1CCC2C(C)(CCC=C(C)C)C(O)CCC2(C)C1Cc1c(OC)oc(C)c(C(=O)OC)c1=O (centres unmarked)", 2.067),
    ("C=C1CC[C@@H]2[C@](C)(CC[C@H]3O[C@H](C=C(C)C)C[C@@]23C)[C@@H]1Cc1c(OC)oc(CO)c(C)c1=O", 3.421),
    ("C=C1CCC2C(C)(CCC=C(C)C)C(O)CCC2(C)C1Cc1c(OC)oc(CO)c(C)c1=O (centres unmarked)", 2.229),
    ("C=C1CCC2C(C)(CCC=C(C)C)C(O)CCC2(C)C1Cc1c(OC)oc(CO)c(C(=O)OC)c1=O (centres unmarked)", 0.3859),
]

----------
Biological target: Aβ42 (Homo sapiens, UniProt P05067)
Assay: Th-T (thioflavin-T) assay of Aβ42 aggregation
Assay type: biochemical
Details: column suffix _50; reading M106
# y = Fig. 7a Th-T reading, mean of three wells below 1 (exclusive); n = Fig. 7a Th-T reading, mean of three wells at/above 1

# Compound, Qualitative Label
records = [
    ("C=C1CCC2C(C)(CCC=C(C)C)C(O)CCC2(C)C1Cc1c(OC)oc(CO)c(C(=O)OC)c1=O (centres unmarked)", "y"),
    ("C=C1CC[C@@H]2[C@](C)(CC[C@H]3O[C@H](C=C(C)C)C[C@@]23C)[C@@H]1Cc1c(OC)oc(CO)c(C(=O)OC)c1=O", "y"),
    ("C=C1CC[C@@H]2[C@](C)(CC[C@H]3O[C@H](C=C(C)C)C[C@@]23C)[C@@H]1Cc1c(OC)oc(CO)c(C)c1=O", "n"),
    ("C=C1CCC2C(C)(CCC=C(C)C)C(O)CCC2(C)C1Cc1c(OC)oc(C)c(C(=O)OC)c1=O (centres unmarked)", "n"),
    ("C=C1CCC2C(C)(CCC=C(C)C)C(O)CCC2(C)C1Cc1c(OC)oc(CO)c(C)c1=O (centres unmarked)", "n"),
]

----------
Assay: cytotoxicity in Drosophila l(2)mbn cells
Assay type: cell-based
Conditions: Drosophila, l(2)mbn cells (larval blood cell-derived), 4 µM, replicate 1, relative to DMSO 1%, read-out: % viability, viability 1
Quantity Kind: viability at 4 µM (%)

# Compound, Observed
rows = [
    ("C=C1CCC2C(C)(CC(=O)C=C(C)C)C(O)CCC2(C)C1Cc1c(O)c(C)c(C)oc1=O (centres unmarked) [Compound 7]", 129),
    ("C=C1CC[C@H]2[C@]3(C)C[C@H](C=C(C)C)O[C@H]3CC[C@]2(C)[C@@H]1Cc1c(OC)oc(C)c(C)c1=O [Compound 24]", 10.4),
    ("C=C1CC[C@H]2[C@]3(C)C[C@@H](C=C(C)C)O[C@H]3CC[C@]2(C)[C@@H]1Cc1c(O)c(C)c(C)oc1=O [Compound 5, subglutinol A]", 8.31),
    ("C=C1CC[C@H]2[C@]3(C)C[C@H](C=C(C)C)O[C@H]3CC[C@]2(C)[C@@H]1Cc1c(OC)oc(CO)c(C)c1=O [Compound 18]", 64.8),
    ("C=C1CCC2C3(C)CC(C=C(C)C)OC3CCC2(C)C1Cc1c(OC)oc(C)c(C)c1=O (centres unmarked) [Compound 23]", 8.9),
]

----------
Biological target: Aβ42 (Homo sapiens, UniProt P05067)
Experiment: Th-T (thioflavin-T) assay of Aβ42 aggregation
Format: biochemical
Conditions: column suffix _50; reading M7
Below: a set of entries, each annotated with reported Th-T assay signal, mean of three wells (Fig. 7a).
Quantity Kind: Th-T assay signal, mean of three wells (Fig. 7a)

# Compound, Observed
measured = [
    ("C=C1CC[C@@H]2[C@](C)(CC[C@H]3O[C@H](C=C(C)C)C[C@@]23C)[C@@H]1Cc1c(OC)oc(CO)c(C(=O)OC)c1=O", 0.2096),
    ("C=C1CCC2C(C)(CCC=C(C)C)C(O)CCC2(C)C1Cc1c(OC)oc(CO)c(C)c1=O (centres unmarked)", 2.454),
    ("C=C1CC[C@@H]2[C@](C)(CC[C@H]3O[C@H](C=C(C)C)C[C@@]23C)[C@@H]1Cc1c(OC)oc(CO)c(C)c1=O", 0.2722),
    ("C=C1CCC2C(C)(CCC=C(C)C)C(O)CCC2(C)C1Cc1c(OC)oc(C)c(C(=O)OC)c1=O (centres unmarked)", 0.4479),
    ("C=C1CCC2C(C)(CCC=C(C)C)C(O)CCC2(C)C1Cc1c(OC)oc(CO)c(C(=O)OC)c1=O (centres unmarked)", 0.1883),
]

----------
Target: Aβ42 (Homo sapiens, UniProt P05067)
Experiment: Th-T (thioflavin-T) assay of Aβ42 aggregation
Format: biochemical
Conditions: head suffix _10 (concentration 10); reading M83
Assign Y to entries whose Th-T fluorescence of Aβ42 (sheet Fig. 7a), mean of three wells meets or exceeds 3; assign N to the rest.

# Molecule, Qualitative Label
measured = [
    ("C=C1CC[C@@H]2[C@](C)(CC[C@H]3O[C@H](C=C(C)C)C[C@@]23C)[C@@H]1Cc1c(OC)oc(CO)c(C(=O)OC)c1=O", "N"),
    ("C=C1CCC2C(C)(CCC=C(C)C)C(O)CCC2(C)C1Cc1c(OC)oc(CO)c(C(=O)OC)c1=O (centres unmarked)", "N"),
    ("C=C1CCC2C(C)(CCC=C(C)C)C(O)CCC2(C)C1Cc1c(OC)oc(C)c(C(=O)OC)c1=O (centres unmarked)", "N"),
    ("C=C1CC[C@@H]2[C@](C)(CC[C@H]3O[C@H](C=C(C)C)C[C@@]23C)[C@@H]1Cc1c(OC)oc(CO)c(C)c1=O", "Y"),
    ("C=C1CCC2C(C)(CCC=C(C)C)C(O)CCC2(C)C1Cc1c(OC)oc(CO)c(C)c1=O (centres unmarked)", "Y"),
]

----------
Test system: IMD pathway
Experiment: IMD pathway inhibition, Attacin promoter luciferase assay in l(2)mbn cells
Type: cell-based, Drosophila
Conditions: Drosophila melanogaster, IMD pathway; read-out: IC50
pIC50: −log10 of the molar value.
Quantity Kind: pIC50

# Molecule, Observed
records = [
    ("C=C1CC[C@@H]2[C@](C)(CC[C@H]3O[C@H](C=C(C)C)C[C@@]23C)[C@@H]1Cc1c(OC)oc(CO)c(C(=O)OC)c1=O [Compound 21]", 6.57),
]

----------
Target: Aβ42 (Homo sapiens)
Experiment: Th-T (thioflavin-T) assay of Aβ42 aggregation
Assay type: biochemical
Settings: head suffix _10 (concentration 10); reading M73
Quantity Kind: Th-T fluorescence of Aβ42 (sheet Fig. 7a), mean of three wells

# Molecule, Observed
rows = [
    ("C=C1CC[C@@H]2[C@](C)(CC[C@H]3O[C@H](C=C(C)C)C[C@@]23C)[C@@H]1Cc1c(OC)oc(CO)c(C)c1=O", 3.414),
    ("C=C1CC[C@@H]2[C@](C)(CC[C@H]3O[C@H](C=C(C)C)C[C@@]23C)[C@@H]1Cc1c(OC)oc(CO)c(C(=O)OC)c1=O", 0.8223),
    ("C=C1CCC2C(C)(CCC=C(C)C)C(O)CCC2(C)C1Cc1c(OC)oc(CO)c(C)c1=O (centres unmarked)", 3.302),
    ("C=C1CCC2C(C)(CCC=C(C)C)C(O)CCC2(C)C1Cc1c(OC)oc(C)c(C(=O)OC)c1=O (centres unmarked)", 2.763),
    ("C=C1CCC2C(C)(CCC=C(C)C)C(O)CCC2(C)C1Cc1c(OC)oc(CO)c(C(=O)OC)c1=O (centres unmarked)", 1.566),
]
